Where these numbers come from: ChEMBL document CHEMBL5512677

Task for the reader: assign each of the following compounds its reported MBC.
system: Staphylococcus aureus; assay: Antibacterial activity against Staphylococcus aureus BB255 assessed as reduction in bacterial growth by measuring minimum bactericidal concentration incubated for 16 to 20 hrs by serial dilution method; format: functional; conditions: time 16-20 hrs

Solved entries:
# COMPOUND, RECORDED_RESULT
data = [
    ("[N-]=[N+]=Nc1ccc(COC(=O)N2CCN(c3cc4c(cc3F)c(=O)c(C(=O)O)cn4C3CC3)CC2)cc1", "> 128 µg/mL"),
    ("O=C(O)c1cn(C2CC2)c2cc(N3CCNCC3)c(F)cc2c1=O [CIPROFLOXACIN]", "0.5 µg/mL"),
    ("[N-]=[N+]=Nc1ccc(COC(=O)N2CCN(c3cc4c(cc3F)c(=O)c(C(=O)OCc3ccc([N+](=O)[O-])cc3)cn4C3CC3)CC2)cc1", "> 128 µg/mL"),
]

Lab note: next compound to report on.
Item: `O=C(OCc1ccc([N+](=O)[O-])cc1)c1cn(C2CC2)c2cc(N3CCNCC3)c(F)cc2c1=O` | System: Staphylococcus aureus | MBC: > 128 µg/mL

---

tested on: Escherichia coli; experiment: Antibacterial activity against Escherichia coli E38 assessed as reduction in bacterial growth by measuring minimum bactericidal concentration incubated for 16 to 20 hrs by serial dilution method; type: functional; details: time 16-20 hrs
Task for the reader: assign each of the following compounds its reported MBC.
One number for each entry, in mg/L.

Solved entries:
# COMPOUND, RESULT_UNITS, MBC
data = [
    ("O=C(OCc1ccc([N+](=O)[O-])cc1)c1cn(C2CC2)c2cc(N3CCNCC3)c(F)cc2c1=O", "mg/L", 2),
    ("C[C@H](NC(=O)c1cn(C2CC2)c2cc(N3CCNCC3)c(F)cc2c1=O)c1ccc([N+](=O)[O-])cc1", "mg/L", 4),
    ("O=C(O)c1cn(C2CC2)c2cc(N3CCNCC3)c(F)cc2c1=O", "mg/L", 0.015),
]

Note to self: MBC recorded for `[N-]=[N+]=Nc1ccc(COC(=O)N2CCN(c3cc4c(cc3F)c(=O)c(C(=O)O)cn4C3CC3)CC2)cc1` was 2
